Just for reference, patent US20180362629A1 is where these values come from.

- TEST_SYSTEM: T1, recombinant canine β NGF (canine, UniProt Q29074 110-229 (pig entry))
- T1 construct: also called canine NGF
- T1 chain: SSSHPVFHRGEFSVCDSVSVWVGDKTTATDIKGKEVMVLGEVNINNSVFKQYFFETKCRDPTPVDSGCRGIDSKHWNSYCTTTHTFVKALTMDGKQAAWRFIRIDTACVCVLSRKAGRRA
- METHOD_DESCRIPTION: SPR (Biacore), mAb captured on goat anti-mouse IgG Fc, canine NGF injected; Average
PROPERTY: kon

Examples from the recorded data:
| BINDER | kon |
| --- | --- |
| PR-1254981 (antibody, mouse IgG1, V domains shown, also called 14A9; ML130-14A9.5B12) VH: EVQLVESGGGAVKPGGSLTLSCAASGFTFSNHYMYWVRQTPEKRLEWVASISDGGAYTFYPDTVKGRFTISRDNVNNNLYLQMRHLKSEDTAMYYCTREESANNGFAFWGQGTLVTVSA VL: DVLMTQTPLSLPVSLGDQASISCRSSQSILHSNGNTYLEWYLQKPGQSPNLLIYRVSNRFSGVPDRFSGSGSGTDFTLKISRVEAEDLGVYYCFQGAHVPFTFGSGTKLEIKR | 8.08e+06 M⁻¹ s⁻¹ |
| PR-1254977 (antibody, mouse IgG1, V domains shown, also called 21D4; ML129-21D4.4A11) VH: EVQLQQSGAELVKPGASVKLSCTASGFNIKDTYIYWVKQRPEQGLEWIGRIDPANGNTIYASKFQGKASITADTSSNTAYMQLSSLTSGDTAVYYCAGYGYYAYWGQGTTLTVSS VL: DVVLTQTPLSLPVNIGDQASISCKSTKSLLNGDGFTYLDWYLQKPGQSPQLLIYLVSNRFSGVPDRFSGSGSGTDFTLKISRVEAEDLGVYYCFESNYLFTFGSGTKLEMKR | > 1e+07 M⁻¹ s⁻¹ |

Would you kindly share the measured kon for PR-1254982 (antibody, mouse IgG1, V domains shown, also called 3F7; ML130-3F7.4A8) VH: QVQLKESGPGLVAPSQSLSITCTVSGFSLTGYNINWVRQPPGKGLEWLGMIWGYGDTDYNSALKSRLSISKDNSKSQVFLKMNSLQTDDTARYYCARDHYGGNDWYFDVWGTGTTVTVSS VL: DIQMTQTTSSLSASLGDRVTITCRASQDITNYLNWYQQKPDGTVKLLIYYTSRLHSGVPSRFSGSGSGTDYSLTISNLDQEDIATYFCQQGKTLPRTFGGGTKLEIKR ?
> 1e+07 M⁻¹ s⁻¹
